The origin of these recorded values is paper PMC5824694.

- Assay procedure: biodistribution and PET/CT in ZR-75-1 tumor-bearing NOD scid gamma mice
- Test settings: female, NOD scid gamma (NOD.Cg-Prkdc scid Il2rg tm1Wjl/SzJ), mouse, in vivo, iv, total radioactivity, Tumor to Background Ratio: Muscle (tumor-to-muscle)
Property label: tissue to tissue ratio at 1 h
Answers are plain numbers.

Problem: Give recorded tissue to tissue ratio at 1 h. C[C@@H](O)[C@@H]1NC(=O)[C@H](CCCCN)NC(=O)[C@@H](Cc2ccc(NC(N)=O)cc2)NC(=O)[C@H](Cc2ccc(NC(=O)[C@@H]3CC(=O)NC(=O)N3)cc2)NC(=O)[C@H](NC(=O)[C@H](Cc2ccc(Cl)cc2)NC(=O)CCC(C(=O)O)N2CCN(CC(=O)O)CCN(CC(=O)O)CC2)CSSC[C@@H](C(=O)N[C@H](Cc2ccc(O)cc2)C(N)=O)NC1=O (stereo partly shown) [^68Ga-NODAGA-JR11, metal not drawn]
Result: 45.1
